B1: EHEE_rd2_1257 (parent)
chain: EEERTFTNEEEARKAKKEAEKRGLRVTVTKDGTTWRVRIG

# Variants of: B1
# assay: folding stability dG (cDNA display proteolysis); higher = more stable
# condition parameters: PBS, room temperature
Assign True whenever folding stability dG does not fall below 1 kcal/mol; assign False whenever it does.

INPUT: // inclusive: folding stability dG at least 1 kcal/mol? input: EEERTFTNPEEARKAKKEAEKRGLRVTVTKDGTTWRVRIG [E9P]
OUTPUT: True

INPUT: // inclusive: folding stability dG at least 1 kcal/mol? input: EEERTFTNEEEYRKAKKEAEKRGLRVTVTKDGTTWRVRIG [A12Y]
OUTPUT: True

INPUT: // inclusive: folding stability dG at least 1 kcal/mol? input: EEERTFTNEEEARKAKKEAEKRGLVVTVTKDGTTWRVRIG [R25V]
OUTPUT: True

INPUT: // inclusive: folding stability dG at least 1 kcal/mol? input: EEERTFTNEEEARKAKKEAEKRGLRVTVTKMGTTWRVRIG [D31M]
OUTPUT: True

INPUT: // inclusive: folding stability dG at least 1 kcal/mol? input: EEERTFTNEEEARKAKKEAEKRGLRFTVTKDGTTWRVRIG [V26F]
OUTPUT: False

INPUT: // inclusive: folding stability dG at least 1 kcal/mol? input: EEERTFTNEEEARKAGKEAEKRGLRVTVTKDGTTWRVRIG [K16G]
OUTPUT: True

INPUT: // inclusive: folding stability dG at least 1 kcal/mol? input: EEERTFTNEEEARKAKKEAEKRGLRVTVTKDGTTWRWRIG [V37W]
OUTPUT: False

INPUT: // inclusive: folding stability dG at least 1 kcal/mol? input: EEERTFTNEEEARKAKKEAEKRGLRVTVTKDGTTMRVRIG [W35M]
OUTPUT: False

INPUT: // inclusive: folding stability dG at least 1 kcal/mol? input: EEERTFTNEEEARKAKKEAEKRGLRVTVTKDLTTWRVRIG [G32L]
OUTPUT: False

INPUT: // inclusive: folding stability dG at least 1 kcal/mol? input: EEMRTFTNEEEARKAKKEAEKRGLRVTVTKDGTTWRVRIG [E3M]
OUTPUT: True

INPUT: // inclusive: folding stability dG at least 1 kcal/mol? input: EEERTFTNEEEARKRKKEAEKRGLRVTVTKDGTTWRVRIG [A15R]
OUTPUT: False

INPUT: // inclusive: folding stability dG at least 1 kcal/mol? input: EEERTFTNEEEARDAKKEAEKRGLRVTVTKDGTTWRVRIG [K14D]
OUTPUT: True

INPUT: // inclusive: folding stability dG at least 1 kcal/mol? input: EEERTFTNEEQARKAKKEAEKRGLRVTVTKDGTTWRVRIG [E11Q]
OUTPUT: True

INPUT: // inclusive: folding stability dG at least 1 kcal/mol? input: EEERTFTNEEEARKAKKEAEKLGLRVTVTKDGTTWRVRIG [R22L]
OUTPUT: True

INPUT: // inclusive: folding stability dG at least 1 kcal/mol? input: EEERTFTNEEEIRKAKKEAEKRGLRVTVTKDGTTWRVRIG [A12I]
OUTPUT: False

INPUT: // inclusive: folding stability dG at least 1 kcal/mol? input: EEERTFTNEEEARKAKKAAEKRGLRVTVTKDGTTWRVRIG [E18A]
OUTPUT: True

INPUT: // inclusive: folding stability dG at least 1 kcal/mol? input: EEERTFTNEEEARKAKKEAEKRGLRVTVTKDGTMWRVRIG [T34M]
OUTPUT: True

INPUT: // inclusive: folding stability dG at least 1 kcal/mol? input: EEIRTFTNEEEARKAKKEAEKRGLRVTVTKDGTTWRVRIG [E3I]
OUTPUT: True
